# System: 958667-338-R-J2-PDC tumor spheroids viability
# ASSAY INFO: Anticancer human tumor 958667-338-R-J2-PDC patient-derived colon adenocarcinoma cell line growth inhibition [PI3K]
# STATED CONDITIONS: curve of first compound; second compound 0.316 µM; spheroids with HUVEC and MSC
pIC50: −log10 of the molar value.
Listed here: items and their measured pIC50.

COMPOUND	TARGET UNDER TEST	MEASUREMENT KIND	VAL
C#Cc1c(F)ccc2cc(O)cc(-c3ncc4c(N5CC6CCC(C5)N6)nc(OCC56CCCN5CC(F)C6)nc4c3F)c12 (stereo unspecified) + CC(Nc1ncnc2nc[nH]c12)c1cc2cccc(Cl)c2c(=O)n1-c1ccccc1	958667-338-R-J2-PDC tumor spheroids viability	pIC50	< 5.00
CCN1CCN(Cc2ccc(Nc3ncc(F)c(-c4cc(F)c5nc(C)n(C(C)C)c5c4)n3)nc2)CC1 + Cc1nc(NC(=O)N2CCCC2C(N)=O)sc1-c1ccnc(C(C)(C)C(F)(F)F)c1	958667-338-R-J2-PDC tumor spheroids viability	pIC50	< 6.00

# pIC50 of CC1(C)CCC(CN2CCN(c3ccc(C(=O)NS(=O)(=O)c4ccc(NCC5CCOCC5)c([N+](=O)[O-])c4)c(Oc4cnc5[nH]ccc5c4)c3)CC2)=C(c2ccc(Cl)cc2)C1 + CC(Nc1ncnc2nc[nH]c12)c1cc2cccc(Cl)c2c(=O)n1-c1ccccc1 = < 5.00

# pIC50 of C[C@@H](NC(=O)c1ncnc(N)c1Cl)c1ncc(C(=O)Nc2cc(C(F)(F)F)c(Cl)cn2)s1 + Cc1nc(NC(=O)N2CCCC2C(N)=O)sc1-c1ccnc(C(C)(C)C(F)(F)F)c1 = < 5.00

# pIC50 of CC(C)NCC(C(=O)N1CCN(c2ncnc3c2C(C)CC3O)CC1)c1ccc(Cl)cc1 (stereo unspecified) + Cc1nc(NC(=O)N2CCCC2C(N)=O)sc1-c1ccnc(C(C)(C)C(F)(F)F)c1 = < 5.00

# pIC50 of CC1(C)CCC(Nc2ncc(C(F)(F)F)c(-c3c[nH]c4c(P(C)(C)=O)c(C#N)ccc34)n2)CN1 (stereo unspecified) + CC(Nc1ccc2c(c1)OCCn1cc(N3C(=O)OCC3C(F)F)nc1-2)C(N)=O = 5.77

# pIC50 of Cn1cnc2c(F)c(Nc3ccc(Br)cc3Cl)c(C(=O)NOCCO)cc21 + CC(Nc1ccc2c(c1)OCCn1cc(N3C(=O)OCC3C(F)F)nc1-2)C(N)=O = 7.17

# pIC50 of CC(C)n1nc(-c2ccc3oc(N)nc3c2)c2c(N)ncnc21 + CC(Nc1ncnc2nc[nH]c12)c1cc2cccc(Cl)c2c(=O)n1-c1ccccc1 = 7.11

# pIC50 of Cn1nccc1Nc1nccc(-c2ccn(C(CO)c3ccc(Cl)c(F)c3)c(=O)c2)n1 (stereo unspecified) + CC(Nc1ncnc2nc[nH]c12)c1cc2cccc(Cl)c2c(=O)n1-c1ccccc1 = < 5.00

###

Listed here: items and their measured viability, T/C.
# Tested on: 958667-338-R-J2-PDC tumor spheroids viability
# ASSAY INFO: Anticancer human tumor 958667-338-R-J2-PDC cell line growth inhibition [PI3K];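 also: spheroids exposed to compounds for seven days before readout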
# STATED CONDITIONS: second compound 0.0316 µM; first compound 3.16 µM; stronger effect = lower value; spheroids with HUVEC and MSC
Quick reminder: number only, in %, skip the unit.

COMPOUND	UNIT NAME	viability, T/C
CC1(C)CCC(Nc2ncc(C(F)(F)F)c(-c3c[nH]c4c(P(C)(C)=O)c(C#N)ccc34)n2)CN1 (centres undefined) + CC(Nc1ccc2c(c1)OCCn1cc(N3C(=O)OCC3C(F)F)nc1-2)C(N)=O	%	64.6

# viability, T/C of C[C@@H](NC(=O)c1ncnc(N)c1Cl)c1ncc(C(=O)Nc2cc(C(F)(F)F)c(Cl)cn2)s1 + Cc1nc(NC(=O)N2CCCC2C(N)=O)sc1-c1ccnc(C(C)(C)C(F)(F)F)c1 = 87.8

# viability, T/C of Cn1nccc1Nc1nccc(-c2ccn(C(CO)c3ccc(Cl)c(F)c3)c(=O)c2)n1 (centres undefined) + COc1c(OCCCN2CCOCC2)ccc2c3n(c(=NC(=O)c4cnc(N)nc4)nc12)CCN3 = 52.3

# viability, T/C of Cn1ncc(Cl)c1-c1cc(C(=O)NC(CN)Cc2cccc(F)c2)sc1Cl (centres undefined) + CC(Nc1ccc2c(c1)OCCn1cc(N3C(=O)OCC3C(F)F)nc1-2)C(N)=O = 44.3

# viability, T/C of CC1(C)CCC(CN2CCN(c3ccc(C(=O)NS(=O)(=O)c4ccc(NCC5CCOCC5)c([N+](=O)[O-])c4)c(Oc4cnc5[nH]ccc5c4)c3)CC2)=C(c2ccc(Cl)cc2)C1 + CC(Nc1ccc2c(c1)OCCn1cc(N3C(=O)OCC3C(F)F)nc1-2)C(N)=O = 86.9

# viability, T/C of Cn1ncc(Cl)c1-c1cc(C(=O)NC(CN)Cc2cccc(F)c2)sc1Cl (centres undefined) + CC(Nc1ncnc2nc[nH]c12)c1cc2cccc(Cl)c2c(=O)n1-c1ccccc1 = 60.5

# viability, T/C of CC(Cn1ccc(-c2ccc(C#N)c(Cl)c2)n1)NC(=O)c1cc(C(C)O)[nH]n1 (centres undefined) + COc1c(OCCCN2CCOCC2)ccc2c3n(c(=NC(=O)c4cnc(N)nc4)nc12)CCN3 = 76.7
